Where do these numbers come from? They come from patent US20100221502A1.

Assay: Evaluation of hue on glossy paper (L*, a*, b*, C* of inkjet recorded image)
Type: physicochemical
Parameters: key: CIELAB b* chromaticity value
Conditions: Glossy paper manufactured by Canon Inc.; ink with 6.0 parts compound
assay_endpoint: Chromaticity b*

O=C(O)c1cc(Nc2nc(O)nc(Nc3cc(Nc4cc(Oc5ccc(-c6ccc(S(=O)(=O)O)cc6)cc5S(=O)(=O)O)c5[nH]c(=O)c(C(=O)c6cccc(S(=O)(=O)O)c6)c6c5c4C(=O)c4ccccc4-6)c(S(=O)(=O)O)cc3S(=O)(=O)O)n2)cc(C(=O)O)c1 [Example 7 (No. 11)] | 1.0

A = Cn1c(=O)cc2c3c(c(Nc4cc(Nc5nc(O)nc(Nc6cc(S(=O)(=O)O)ccc6S(=O)(=O)O)n5)ccc4S(=O)(=O)O)ccc31)C(=O)c1ccccc1-2 [Comparative Example 1, reference compound]
B = O=C(c1cccc(S(=O)(=O)O)c1)c1c2c3c(c(Nc4cc(Nc5nc(O)nc(Nc6ccccc6S(=O)(=O)O)n5)c(S(=O)(=O)O)cc4S(=O)(=O)O)cc(Oc4ccc(-c5ccc(S(=O)(=O)O)cc5)cc4S(=O)(=O)O)c3[nH]c1=O)C(=O)c1ccccc1-2 [Example 5 (No. 1)]
C = O=C(O)c1ccccc1Nc1nc(O)nc(Nc2cc(Nc3cc(Oc4ccc(-c5ccc(S(=O)(=O)O)cc5)cc4S(=O)(=O)O)c4[nH]c(=O)c(C(=O)c5cccc(S(=O)(=O)O)c5)c5c4c3C(=O)c3ccccc3-5)c(S(=O)(=O)O)cc2S(=O)(=O)O)n1 [Example 6 (No. 8)]
Provide the items ranked by increasing Chromaticity b*. Note for the reader: the ranking is given by listing the labels in the order requested.
A, B, C
